EXPERIMENTAL_SYSTEM: Bifunctional dihydrofolate reductase-thymidylate synthase (Plasmodium falciparum K1, UniProt P13922, C59R/I164L/S108N)
ASSAY_OVERVIEW: Inhibitory activity against triple mutant dihydrofolate reductase (C59R S108N I164L DHFR)
pKi for assorted compounds
Keep in mind that pKi stands for -log10 of concentration in molar terms.

The examples below pair each entry with its known result.
CCCCCCCOc1cc(Cc2cnc(N)nc2N)ccc1OC: 6.53
CCOc1cc(Cc2cnc(N)nc2N)ccc1OCCCOCCCOc1ccccc1: 6.50
COc1cc(Cc2cnc(N)nc2N)ccc1OCCCOc1ccccc1: 6.59

(Q) Output measured pKi for this item: Nc1ncc(Cc2ccc(OCCCOc3ccccc3)cc2)c(N)n1
(A) 6.33

====

EXPERIMENTAL_SYSTEM: Bifunctional dihydrofolate reductase-thymidylate synthase (Plasmodium falciparum K1)
ASSAY_OVERVIEW: Inhibitory activity against wild-type dihydrofolate reductase (S108N DHFR), relative to trimethoprim
ATTRIBUTE_MEASURED: Relative activity
Output spec: single numeric token, no unit.

The examples below pair each entry with its known result.
COc1cc(Cc2c(C)nc(N)nc2N)ccc1OCc1ccccc1: 0.3
COc1cc(Cc2cnc(N)nc2N)ccc1OCCCOc1ccccc1: 0.19
CCCCCCCOc1cc(Cc2cnc(N)nc2N)ccc1OC: 0.3

(Q) Output measured Relative activity for this item: COc1cc(Cc2cnc(N)nc2N)ccc1OCCCc1ccccc1
(A) 0.17

(Q) Output measured Relative activity for this item: Nc1ncc(Cc2ccc(OCCCc3ccccc3)cc2)c(N)n1
(A) 0.57

(Q) Output measured Relative activity for this item: Nc1ncc(Cc2ccc(OCCCOCCCOc3ccccc3)cc2)c(N)n1
(A) 0.68

====

Ki for assorted molecules
EXPERIMENTAL_SYSTEM: Bifunctional dihydrofolate reductase-thymidylate synthase (Plasmodium falciparum K1, UniProt P13922)
Sequence (P13922 whole entry): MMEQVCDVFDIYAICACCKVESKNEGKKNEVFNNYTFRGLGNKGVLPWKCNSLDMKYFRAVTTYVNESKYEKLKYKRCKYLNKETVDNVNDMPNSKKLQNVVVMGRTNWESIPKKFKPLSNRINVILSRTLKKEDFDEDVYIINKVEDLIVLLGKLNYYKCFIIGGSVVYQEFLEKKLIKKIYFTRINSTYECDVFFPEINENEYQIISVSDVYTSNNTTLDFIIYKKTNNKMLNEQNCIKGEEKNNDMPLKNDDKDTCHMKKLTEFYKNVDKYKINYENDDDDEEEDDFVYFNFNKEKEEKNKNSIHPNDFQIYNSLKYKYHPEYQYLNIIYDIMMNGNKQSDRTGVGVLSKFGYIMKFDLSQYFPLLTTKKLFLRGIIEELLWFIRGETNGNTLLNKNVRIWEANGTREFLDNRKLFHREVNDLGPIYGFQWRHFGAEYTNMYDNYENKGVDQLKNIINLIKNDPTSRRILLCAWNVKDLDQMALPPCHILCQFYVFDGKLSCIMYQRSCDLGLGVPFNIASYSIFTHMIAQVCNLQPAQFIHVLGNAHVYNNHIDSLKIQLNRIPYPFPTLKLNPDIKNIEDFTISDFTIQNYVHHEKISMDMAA
ASSAY_OVERVIEW: Inhibitory activity against double mutant dihydrofolate reductase (C59R+S108N DHFR)
Return type: number; implicit unit nM.

The examples below pair each entry with its known result.
COc1ccc(Cc2cnc(N)nc2N)cc1OCc1ccccc1: 143
COc1cc(Cc2cnc(N)nc2N)ccc1OCCCOCCCOc1ccccc1: 154
CCCCCCCOc1cc(Cc2cnc(N)nc2N)ccc1OC: 104

// next item, Ki requested
(Q) Output measured Ki for this item: CCCCCOc1ccc(Cc2cnc(N)nc2N)cc1
(A) 137

====

EXPERIMENTAL_SYSTEM: Bifunctional dihydrofolate reductase-thymidylate synthase (Plasmodium falciparum K1)
ASSAY_OVERVIEW: Inhibitory activity against quadruple mutant dihydrofolate reductase (N51I C59R S108N I164L DHFR), relative to trimethoprim
ATTRIBUTE_MEASURED: Relative activity
Output spec: single numeric token, no unit.

The examples below pair each entry with its known result.
CCCOc1ccc(Cc2cnc(N)nc2N)cc1: 0.2
CCCCOc1cc(Cc2cnc(N)nc2N)ccc1OC: 0.2
CCOc1cc(Cc2cnc(N)nc2N)ccc1OCCCOCCCOc1ccccc1: 0.14
CCCOc1cc(Cc2c(N)nc(N)nc2CC)ccc1OCc1cc(OC)c(OC)c(OC)c1: 0.1
CCOc1cc(Cc2cnc(N)nc2N)ccc1OCCCc1ccccc1: 0.08

(Q) Find the measured Relative activity of CCOc1ccc(Cc2cnc(N)nc2N)cc1OC with Bifunctional dihydrofolate reductase-thymidylate synthase (Plasmodium falciparum K1) as test system.
(A) 1.8

(Q) Find the measured Relative activity of CCCCCOc1cc(Cc2cnc(N)nc2N)ccc1OC with Bifunctional dihydrofolate reductase-thymidylate synthase (Plasmodium falciparum K1) as test system.
(A) 0.1

(Q) Find the measured Relative activity of Nc1ncc(Cc2ccc(OCCCOCCCOc3ccccc3)cc2)c(N)n1 with Bifunctional dihydrofolate reductase-thymidylate synthase (Plasmodium falciparum K1) as test system.
(A) 0.24

Hello, the source for this data is ChEMBL document CHEMBL1148379, in case you need it.
